Provide the reported kon of each item.
# target_desc: T1, human DLL3 (ACRO, DLL3-H52H4) (human, UniProt Q9NYJ7 27-492)
# T1 construct: Bought
# T1 sequence: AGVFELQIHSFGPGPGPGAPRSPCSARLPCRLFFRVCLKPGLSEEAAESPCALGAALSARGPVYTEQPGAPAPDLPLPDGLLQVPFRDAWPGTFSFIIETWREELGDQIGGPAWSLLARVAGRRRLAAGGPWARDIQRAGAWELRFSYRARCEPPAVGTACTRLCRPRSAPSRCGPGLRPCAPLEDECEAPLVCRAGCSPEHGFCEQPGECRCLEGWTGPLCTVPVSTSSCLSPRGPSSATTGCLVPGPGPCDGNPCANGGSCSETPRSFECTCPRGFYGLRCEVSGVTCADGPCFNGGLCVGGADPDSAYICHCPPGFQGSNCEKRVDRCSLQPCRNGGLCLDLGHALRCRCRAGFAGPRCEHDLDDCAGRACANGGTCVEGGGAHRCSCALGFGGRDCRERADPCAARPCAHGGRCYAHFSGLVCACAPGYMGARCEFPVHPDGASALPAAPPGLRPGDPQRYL
# protocol_text: SPR Biacore 8K, Ab captured on Protein A
Numbers only, in M⁻¹ s⁻¹.

binder: M98CH1 (antibody, human IgG1, kappa, V domains shown, chimeric antibody of mAb98, human IgG1/kappa; also called M98CHI) VH: EVQLVESGGGLVKPGGSLKLSCAASGFTFSDYGIHWVRQAPEKGLEWVAYISSGGYTIYYADTVKGRFTISRDNAKNTLFLQMTSLRSEDTAMYYCARGDYDDIFYTMDYWGQGTSVTVSS VL: DIQMTQTTSSLSASLGDRVTISCRASRDITKFLNWYQQKPDGTVKLLIYYTSRLHSGVPSRFSGSGSGTDYSLTISNLDQEDIATYFCQQGNTLPWTFGGGTKLDIKR
kon (M⁻¹ s⁻¹): 1.59e+06

Look up kon for the entries below, preserving their order.
1. hu6L3H3 (antibody, human IgG1, kappa, V domains shown) VH: EVQLVQSGAEVKKPGASVKVSCKASGYTFTDYYMNWVRQAPGQRLEWIGIINPYSGVTIYNHKFKGRATLTVDKSANTAYMELSSLRSEDTAVYYCARQDSLLDYAMDYWGQGTTVTVSS VL: DIQMTQSPSSLSASVGDRVTITCHASQGISGNMGWLQQKPGKSFKGLIYHGANLEDGVPSRFSGSGSGADYTLTISSLQPEDFATYYCVQYAQFPYTFGGGTKVEIKR
2. hu30L1H6 (antibody, human IgG1, kappa, V domains shown) VH: EVRLVQSGAEVKKPGASVKVSCKASGYTFTDYYMNWVRQAPGQSLEWMGIINPYNVDTSYNQKFRGRVTLTVDKSASTAYMELSSLRSEDTAVYYCARYHYGPHLEGYFDVWGQGTTVTVSS VL: DIVMTQSPDSLAVSLGERATINCKASENVGYVSWYQQKPGQPPKLLIYGASNRYTGVPDRFSGSGSGTDFTLTISSLQAEDVAVYYCGQSYSYPLTFGQGTKLEIKR

Response:
1. 718000
2. 1.04e+06
